# assayedSystem: GST-Nv-NF-kB (Ser allele) (Nematostella vectensis, UniProt A7UNT2 2-411)
# Sequence: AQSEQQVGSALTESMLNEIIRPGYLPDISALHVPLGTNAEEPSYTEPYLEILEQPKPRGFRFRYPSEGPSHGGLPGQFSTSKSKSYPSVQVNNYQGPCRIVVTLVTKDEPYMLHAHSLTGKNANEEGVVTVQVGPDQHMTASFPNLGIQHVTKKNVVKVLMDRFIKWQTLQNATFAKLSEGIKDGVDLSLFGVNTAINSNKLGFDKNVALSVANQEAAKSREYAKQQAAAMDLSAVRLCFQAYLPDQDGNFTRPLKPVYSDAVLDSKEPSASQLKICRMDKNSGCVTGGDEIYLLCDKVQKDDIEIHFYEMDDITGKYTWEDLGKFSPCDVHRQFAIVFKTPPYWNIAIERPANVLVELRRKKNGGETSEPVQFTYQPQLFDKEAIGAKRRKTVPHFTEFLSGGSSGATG
# protocolText: protein-binding microarray (PBM); PBM: ~300 nM protein, 6 mM HEPES pH 7.8, 80 mM KCl, 0.5 mM EDTA, 0.5 mM EGTA, 6% glycerol, 35 ng/ul poly-dIdC, 1% milk, 1 h, room temperature; Ap Aiptasia and Nv Nematostella (sea anemones) / Co Capsaspora / Aq Amphimedon (sponge) / Dm Drosophila / Hu human; RHD is the Rel homology domain; high values mean tight binding
# conditionDescription: dsDNA, one strand shown
Examples of sequences with documented binding signal follow.
measuredProperty: binding signal

>>> measurement("CCGATTAACATCAATACACCCCCTGATGTTAATCGGGTCTTGATTCGCTTGACGCTGCTG")
"4.34 z-score"
>>> measurement("CCGATTAACATCACATGTTCCCCTGATGTTAATCGGGTCTTGATTCGCTTGACGCTGCTG")
"6.15 z-score"
>>> measurement("CCGATTAACATCAAGTACCCCCCTGATGTTAATCGGGTCTTGATTCGCTTGACGCTGCTG")
"4.15 z-score"
>>> measurement("CCGATTAACATCAGGGGCTTCCATGATGTTAATCGGGTCTTGATTCGCTTGACGCTGCTG")
"3.55 z-score"
>>> measurement("CCGATTAACATCAGTCCCGCACTTGATGTTAATCGGGTCTTGATTCGCTTGACGCTGCTG")
"1.03 z-score"
